Quick reference: cell viability of the listed items.
System: P12-Ichikawa
Experiment: cell viability relative to DMSO control; higher = less cytotoxic
Settings: RPMI 5 mM glucose + 10% FBS; 48 h; 0.00702 µM
Answer in %, number only, no unit symbol.

Worked set:
* C[C@@H]1COCCN1c1cc(C2([S@+](C)(=N)[O-])CC2)nc(-c2ccnc3[nH]ccc23)n1 | 118
* CNCCCC12CCC(c3ccccc31)c1ccccc12 | 102
* O=C1[C@H](Cc2ccc(O)cc2)N2C(=O)CCN(C(=O)NCc3ccccc3)[C@H]2CN1Cc1cccc2ccccc12 | 76.3
* COC(=O)C[C@](O)(CCCC(C)(C)O)C(=O)O[C@@H]1C(OC)=CC23CCCN2CCc2cc4c(cc2[C@H]13)OCO4 (some centres undefined) | 111
* O=C1NC(=O)/C(=C/c2ccc3nccc(-c4ccncc4)c3c2)S1 | 103

Could you now look at the following molecule, please?
Entry CN1CCN(C2=Nc3cc(Cl)ccc3Nc3ccccc32)CC1 : reported cell viability = ?
115

###

Quick reference: AUC of viability dose-response curve of the listed items.
System: SEM cells
Assay: AUC of viability dose-response curve (% viability x log10 dose units); higher = less sensitive
Settings: RPMI 5 mM glucose + 10% FBS; 48 h
# answer = number (no unit)

Worked set:
* CN[C@@H](C)[C@H]1[C@H](O)C[C@@]2(C)[C@@H]3CC[C@H]4C(C)(C)[C@@H](NC)CC[C@@]45C[C@@]35CC[C@]12C | 392
* COC(=O)Nc1nc2cc(C(=O)c3ccccc3)ccc2[nH]1 | 286
* Cc1cnn(C)c1C(=O)Nc1cc(Nc2ccc3c(/C=C/c4ccccn4)n[nH]c3c2)ccc1F | 311
* O=C(NCC1CCCCN1)c1cc(OCC(F)(F)F)ccc1OCC(F)(F)F (configuration not stated) | 464
* CNC(=O)c1ccc2cc(C3(O)CCn4cncc43)ccc2c1 (configuration not stated) | 450
* CC(C)(O)CC[C@@H](O)[C@](C)(O)[C@H]1CC[C@@]2(O)C/3=C/C(=O)[C@@H]4C[C@@H](O)[C@@H](O)C[C@]4(C)[C@H]3CC[C@]12C | 449
* CCN1CCN(CC1)CC(=O)NC2=CC=C(C3=C2C4=C(S3)C=CC=C4)C5=C6O\C(=C/C(=O)C6=CC=C5)N7CCOCC7 | 337
* Cn1cnc2c(F)c(Nc3ccc(Br)cc3F)c(C(=O)NOCCO)cc21 | 382

Entry COC(=O)C[C@](O)(CCCC(C)(C)O)C(=O)O[C@@H]1C(OC)=CC23CCCN2CCc2cc4c(cc2[C@H]13)OCO4 (some centres not stated) : reported AUC of viability dose-response curve = ?
452

Entry C[S+](=O)([O-])c1cc(F)cc2c3c(n(Cc4ccc(Cl)cc4)c12)[C@@H](CC(=O)O)CC3 : reported AUC of viability dose-response curve = ?
468

Entry COc1ccc([C@@H]2CC(=O)c3c(O)cc(O[C@@H]4O[C@H](CO[C@@H]5O[C@@H](C)[C@H](O)[C@@H](O)[C@H]5O)[C@@H](O)[C@H](O)[C@H]4O)cc3O2)cc1O : reported AUC of viability dose-response curve = ?
469

Entry C[C@@H]1COCCN1c1cc(C2([S@+](C)(=N)[O-])CC2)nc(-c2ccnc3[nH]ccc23)n1 : reported AUC of viability dose-response curve = ?
335

Entry CN(C)C(=N)NC(=N)N : reported AUC of viability dose-response curve = ?
393

###

Tested on: SEM cells
Test: cell viability relative to DMSO control; higher = less cytotoxic
Details: RPMI 5 mM glucose + 10% FBS; 48 h; 0.00234 µM
READOUT LABEL: cell viability (%)
Answer in %, number only, no unit symbol.

Worked set:
* CN[C@H]1CCC2=CC(=C(OC)C(=C2C/3=C/C=C(OC)\C(=O)/C=C13)OC)OC | 122
* COC(=O)C[C@](O)(CCCC(C)(C)O)C(=O)O[C@@H]1C(OC)=CC23CCCN2CCc2cc4c(cc2[C@H]13)OCO4 (some centres undefined) | 101
* C/C=C/C/C=C/CCC(=O)[C@H]1O[C@H]1C(N)=O | 117

Entry O=C(c1ccc(F)cc1)N1CCC[C@H](c2nc(-c3ccc(F)cc3)no2)C1 : reported cell viability = ?
111

Entry CNCCCC12CCC(c3ccccc31)c1ccccc12 : reported cell viability = ?
97.3

Entry FC1=C(C=C(C\C2=N\NC(=O)C3=C2C=CC=C3)C=C1)C(=O)N4CCN(CC4)C(=O)C5CC5 : reported cell viability = ?
95.8

Entry ClC1=CC=C(C=C1)C(C#N)C2=C(Cl)C=C(C=C2Cl)N3\N=C/C(=O)NC3=O (centres undefined) : reported cell viability = ?
47.9

Entry O=c1[nH]c(=O)n([C@H]2C[C@H](O)[C@@H](CO)O2)cc1/C=C/Br : reported cell viability = ?
121

Entry OC(c1cc(C(F)(F)F)nc2c(C(F)(F)F)cccc12)C1CCCCN1 (centres undefined) : reported cell viability = ?
118

###

Quick reference: cell viability of the listed items.
Tested on: SEM cells
Assay: cell viability relative to DMSO control; higher = less cytotoxic
Settings: RPMI 5 mM glucose + 10% FBS; 48 h; 0.000781 µM
Answer in %, number only, no unit symbol.

Worked set:
- CNCC(O)c1ccc(O)cc1 (centres undefined): 96.6
- O=C(O)C1(Cc2cccc(Nc3nccs3)n2)CCC(Oc2cccc(Cl)c2F)CC1 (centres undefined): 97
- COCCOc1ccc2c(c1)ncn2-c1ccc2cccc(N3CCC(N)CC3)c2n1: 99.7

Could you now look at the following molecule, please?
Checklist item: cell viability tested on SEM cells, entry O=C1c2ccccc2-[n+]2ccc3c([nH]c4ccccc43)c21 , value?
116

###

Quick reference: cell viability of the listed items.
Tested on: SEM cells
Test: cell viability relative to DMSO control; higher = less cytotoxic
Settings: HPLM + 10% dialyzed FBS; 48 h; 0.000781 µM
Field note: include the unit after the figure.

Worked set:
- CC(C)CNc1ccnc(NCc2csc(-c3ccccc3)n2)n1: 88.4%
- c1ccc(CCCN2CCN(CCOC(c3ccccc3)c3ccccc3)CC2)cc1: 27.6%
- N[S+]([O-])(=O)C1=C(Cl)C=C2\N=C/N[S+]([O-])(=O)C2=C1: 91.1%
- CCOC(=O)[C@@H](N)Cc1ccc(-c2cc(O[C@H](c3ccc(Cl)cc3-n3ccc(C)n3)C(F)(F)F)nc(N)n2)cc1.O=C(O)CNC(=O)c1ccccc1: 100%

Could you now look at the following molecule, please?
Entry CNCCCC12CCC(c3ccccc31)c1ccccc12 : reported cell viability = ?
96.5%

###

Test system: P12-Ichikawa
Assay: AUC of viability dose-response curve (% viability x log10 dose units); higher = less sensitive
Details: HPLM + 10% dialyzed FBS; 48 h
READOUT LABEL: AUC of viability dose-response curve
# answer = number (no unit)

• CN(C)[S+](=O)([O-])c1ccc2c(c1)C(=Cc1cc3c([nH]1)CCCC3)C(=O)N2 = 467
• COc1ccc([C@@H]2CC(=O)c3c(O)cc(O[C@@H]4O[C@H](CO[C@@H]5O[C@@H](C)[C@H](O)[C@@H](O)[C@H]5O)[C@@H](O)[C@H](O)[C@H]4O)cc3O2)cc1O = 467
• CCN1CCN(CC1)CC(=O)NC2=CC=C(C3=C2C4=C(S3)C=CC=C4)C5=C6O\C(=C/C(=O)C6=CC=C5)N7CCOCC7 = 464
• CC(C)(C)NC(=O)Nc1cccc(Nc2ncc(F)c(NC(C)(C)CO)n2)c1 = 415

Entry C[C@]12CC[C@@H]3c4ccc(O)cc4CC[C@H]3[C@@H]1[C@@H](O)[C@@H](O)[C@@H]2O : reported AUC of viability dose-response curve = ?
468

Entry CNC(=O)c1ccc2cc(C3(O)CCn4cncc43)ccc2c1 (configuration not stated) : reported AUC of viability dose-response curve = ?
453

Entry CCN(CC)CCOc1ccc(/C(=C(\Cl)c2ccccc2)c2ccccc2)cc1 : reported AUC of viability dose-response curve = ?
466

Entry N#CCNC(=O)c1ccc(-c2ccnc(Nc3ccc(N4CCOCC4)cc3)n2)cc1 : reported AUC of viability dose-response curve = ?
447

Entry O=C(/C=C\n1cnc(-c2cc(C(F)(F)F)cc(C(F)(F)F)c2)n1)NNc1cnccn1 : reported AUC of viability dose-response curve = ?
302

Entry C[S+](=O)([O-])c1cc(F)cc2c3c(n(Cc4ccc(Cl)cc4)c12)[C@@H](CC(=O)O)CC3 : reported AUC of viability dose-response curve = ?
466

Entry COCC1(CO)C(=O)C2CCN1CC2 (configuration not stated) : reported AUC of viability dose-response curve = ?
413
